Target: rat P2X4 (Rattus norvegicus, UniProt P51577)
Sequence (P51577 1-388): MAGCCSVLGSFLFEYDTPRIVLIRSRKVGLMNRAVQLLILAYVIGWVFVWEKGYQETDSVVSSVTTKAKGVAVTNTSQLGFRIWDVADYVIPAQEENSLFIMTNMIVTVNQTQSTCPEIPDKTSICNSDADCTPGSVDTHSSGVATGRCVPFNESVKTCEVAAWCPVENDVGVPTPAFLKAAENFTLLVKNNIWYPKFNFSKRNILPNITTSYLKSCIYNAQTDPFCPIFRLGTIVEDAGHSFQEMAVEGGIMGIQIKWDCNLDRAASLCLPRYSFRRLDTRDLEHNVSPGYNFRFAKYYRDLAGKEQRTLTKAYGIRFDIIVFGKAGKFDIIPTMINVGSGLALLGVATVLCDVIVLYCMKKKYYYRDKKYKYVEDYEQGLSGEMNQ
Assay: FLIPR Method for Rat P2X4 1321N1 Astrocytoma Cells
Conditions: 1321N1 stably expressing rat P2X4; agonist MgATP 5 μM (EC80)
Please assign false whenever IC50 is at or above 0.3 µM, and true whenever it is below.

Answered examples (6):
CC(=O)N(c1ccccc1)c1cc(NC(=O)Cc2ccc(F)cc2Cl)ccn1 ... false
CC(=O)N(c1cc(NC(=O)Cc2ccccc2Cl)ccn1)c1cc(F)ccc1Cl ... false
CC(=O)N(c1ccc(F)c(F)c1)c1cc(NC(=O)Cc2ccc(Cl)cc2Cl)ccn1 ... true
CC(=O)N(c1ccc(F)c(F)c1)c1cc(NC(=O)Cc2c(Cl)cccc2Cl)ccn1 ... true
CC(=O)N(c1ccc(F)c(Cl)c1)c1cc(NC(=O)Cc2ccccc2Cl)ccn1 ... true
CC(=O)N(c1ccc(F)c(F)c1)c1cc(NC(=O)Cc2ccccc2C(F)(F)F)ccn1 ... false

Next up:
## Task Does the reported IC50 of COc1ccc(N(C(C)=O)c2cc(NC(=O)Cc3ccccc3Cl)ccn2)cc1F stay below 0.3 µM?
## Result false

---

target: human P2X4 (Homo sapiens, UniProt Q99571); construct: expressed in transfected cells; assay: Human P2X4 HEK Cell FLIPR Assay; assay type: cell-based; details: HEK293 stably expressing human P2X4; agonist Bz-ATP 3 μM (EC80)
Sequence (Q99571 whole entry): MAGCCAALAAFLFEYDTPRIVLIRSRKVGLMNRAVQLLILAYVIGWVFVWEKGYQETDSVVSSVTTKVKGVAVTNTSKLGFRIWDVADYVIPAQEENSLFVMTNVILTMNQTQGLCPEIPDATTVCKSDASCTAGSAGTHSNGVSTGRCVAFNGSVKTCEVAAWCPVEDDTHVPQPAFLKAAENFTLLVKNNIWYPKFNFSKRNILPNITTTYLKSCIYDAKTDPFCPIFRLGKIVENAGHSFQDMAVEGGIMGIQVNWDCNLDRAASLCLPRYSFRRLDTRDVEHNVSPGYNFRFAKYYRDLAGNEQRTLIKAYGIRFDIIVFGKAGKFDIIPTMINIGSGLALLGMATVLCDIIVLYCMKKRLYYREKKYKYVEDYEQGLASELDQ
quantity_measured: Human P2X4 HEK Cells (FLIPR Assay) avg Efficacy (%)
Return type: number; implicit unit %.

CC(=O)N(c1ccccc1)c1cc(NC(=O)Cc2cccc(F)c2Cl)cnn1 [Example 186] ... 99
CC(=O)N(c1ccc(F)cc1)c1cc(NC(=O)Cc2ccccc2Cl)cnn1 [Example 192] ... 90
CC(=O)N(c1ccc(F)c(F)c1)c1cc(NC(=O)Cc2ccc(F)cc2Cl)cnn1 [Example 202] ... 94

// moving on: another record for Human P2X4 HEK Cells (FLIPR Assay) avg Efficacy
response.value for CC(=O)N(c1cc(NC(=O)Cc2c(Cl)cccc2Cl)ccn1)c1ccccc1F [Example 118] (field: Human P2X4 HEK Cells (FLIPR Assay) avg Efficacy) = 94

---

Target: rat P2X4 (Rattus norvegicus)
Sequence (P51577 1-388): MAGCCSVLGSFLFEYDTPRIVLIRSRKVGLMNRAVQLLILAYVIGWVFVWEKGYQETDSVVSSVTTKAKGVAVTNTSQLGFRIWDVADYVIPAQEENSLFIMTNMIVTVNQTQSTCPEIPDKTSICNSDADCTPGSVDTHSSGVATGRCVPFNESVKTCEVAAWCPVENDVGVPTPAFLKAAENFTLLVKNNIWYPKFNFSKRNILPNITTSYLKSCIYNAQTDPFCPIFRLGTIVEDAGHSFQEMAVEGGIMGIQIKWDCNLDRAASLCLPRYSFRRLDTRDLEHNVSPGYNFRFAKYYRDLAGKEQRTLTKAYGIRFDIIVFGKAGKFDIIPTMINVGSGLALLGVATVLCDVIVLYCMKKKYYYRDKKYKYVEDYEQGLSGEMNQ
Assay: FLIPR Method for Rat P2X4 1321N1 Astrocytoma Cells
Conditions: 1321N1 stably expressing rat P2X4; agonist MgATP 5 μM (EC80)
Procedure: Compounds were tested on a 1321N1 cell line stably expressing rat P2X4. Cells were cultured on collagen-I-coated 384-well plates at a density of 10,000 cells/well and incubated overnight at 37° C., 5% CO2. P2X4 function was assessed by measuring intracellular calcium fluxes caused by Magnesium-ATP (MgATP) using the calcium-chelating dye Fluo8-AM (Molecular Devices) with the Fluorescent Imaging Plate Reader Tetra (FLIPR^Tetra; Molecular Devices CA). […]
Reported IC50 values are given for each entry in this list.
Return type: number; implicit unit nM.

Below are worked cases with known answers.
CCCC(=O)N(c1ccc(F)cc1)c1cc(NC(=O)Cc2ccccc2Cl)ccn1 ... 934
CC(=O)N(c1ccc(F)c(Cl)c1)c1cc(NC(=O)Cc2ccc(F)cc2Cl)ccn1 ... 177

// moving on: another record for IC50
Tested on rat P2X4 (Rattus norvegicus): CC(=O)N(c1ccc(F)c(C#N)c1)c1cc(NC(=O)Cc2c(Cl)cccc2Cl)ccn1 . Observed IC50: 174

---

Biological target: UniProt:P51577
Sequence (P51577 1-388): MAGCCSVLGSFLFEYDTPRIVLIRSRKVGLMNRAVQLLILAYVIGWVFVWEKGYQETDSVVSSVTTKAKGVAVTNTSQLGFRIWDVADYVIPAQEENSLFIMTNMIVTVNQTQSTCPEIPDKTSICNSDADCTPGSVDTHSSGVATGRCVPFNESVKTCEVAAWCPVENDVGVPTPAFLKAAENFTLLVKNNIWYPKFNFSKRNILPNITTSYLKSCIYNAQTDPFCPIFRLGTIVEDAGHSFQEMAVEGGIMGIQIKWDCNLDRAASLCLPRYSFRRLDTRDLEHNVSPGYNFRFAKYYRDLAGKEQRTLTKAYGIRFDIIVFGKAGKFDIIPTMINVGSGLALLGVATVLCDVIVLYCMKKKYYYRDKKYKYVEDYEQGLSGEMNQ
Assay: FLIPR Method for Rat P2X4 1321N1 Astrocytoma Cells
Settings: 1321N1 stably expressing rat P2X4; agonist MgATP 5 μM (EC80)
Reported IC50 values are given for each entry in this list.
Note: state the figure and append the unit.

COc1ccc(N(C(C)=O)c2cc(NC(=O)Cc3cccc(F)c3Cl)ccn2)cc1F ... 1.11 µM
CC(=O)N(c1ccc(F)cc1)c1cc(NC(=O)Cc2c(Cl)cccc2Cl)ccn1 ... 0.136 µM
CC(=O)N(c1cccc(C#N)c1)c1cc(NC(=O)Cc2c(Cl)cccc2Cl)ccn1 ... 0.201 µM
CC(=O)N(c1ccc(F)cc1)c1cc(NC(=O)Cc2ccccc2C(F)(F)F)ccn1 ... 0.727 µM
CC(=O)N(c1ccc(F)cc1)c1cc(NC(=O)Cc2cccc(F)c2C(F)(F)F)ccn1 ... 0.801 µM

response.value for CC(=O)N(c1cccc(C#N)c1)c1cc(NC(=O)Cc2c(F)cccc2Cl)ccn1 (field: IC50) = 0.441 µM

response.value for CC(=O)N(c1cc(F)cc(F)c1)c1cc(NC(=O)Cc2ccc(F)cc2Cl)ccn1 (field: IC50) = 0.983 µM

response.value for CCCC(=O)N(c1ccc(F)cc1)c1cc(NC(=O)Cc2c(Cl)cccc2Cl)ccn1 (field: IC50) = 0.557 µM

---

molecular target: human P2X4 (Homo sapiens, UniProt Q99571); construct: expressed in transfected cells; experiment: Human P2X4 HEK Cell FLIPR Assay; type: cell-based; details: HEK293 stably expressing human P2X4; agonist Bz-ATP 3 μM (EC80)
Reported Human P2X4 HEK Cells (FLIPR Assay) avg Efficacy values are given for each entry in this list.
Return type: number; implicit unit %.

CC(=O)N(c1cc(F)cc(C#N)c1)c1cc(NC(=O)Cc2c(Cl)cccc2Cl)ccn1 ... 103
CC(=O)N(c1ccc(F)cc1)c1cc(NC(=O)Cc2c(F)cccc2Cl)ccn1 ... 90
CC(=O)N(c1ccc(F)cc1)c1cc(NC(=O)Cc2ccccc2OC(F)(F)F)ccn1 ... 98
CC(=O)N(c1cc(NC(=O)Cc2cccc(F)c2Cl)ccn1)c1ccc(C(F)(F)F)cc1F ... 101
CC(=O)N(c1ccc(F)c(C#N)c1)c1cc(NC(=O)Cc2c(Cl)cccc2Cl)ccn1 ... 100
CC(=O)N(c1cc(NC(=O)Cc2ccc(F)cc2Cl)ccn1)c1ccc(F)cc1F ... 97
CC(=O)N(c1cc(NC(=O)Cc2ccccc2Cl)ccn1)c1cc(F)ccc1Cl ... 96

// moving on: another record for Human P2X4 HEK Cells (FLIPR Assay) avg Efficacy
response.value for CC(=O)N(c1cc(NC(=O)Cc2cccc(C(F)(F)F)c2Cl)ccn1)c1cccc(F)c1F (field: Human P2X4 HEK Cells (FLIPR Assay) avg Efficacy) = 97

---

Reported Human P2X4 HEK Cells (FLIPR Assay) avg Efficacy values are given for each entry in this list.
biological target: human P2X4 (Homo sapiens, UniProt Q99571); construct: expressed in transfected cells; test: Human P2X4 HEK Cell FLIPR Assay; assay type: cell-based; conditions: HEK293 stably expressing human P2X4; agonist Bz-ATP 3 μM (EC80)
Return type: number; implicit unit %.

CC(=O)N(c1ccc(F)cc1)c1cc(NC(=O)Cc2cccc(F)c2Cl)ccn1 ... 97
CC(=O)N(c1ccc(F)c(C#N)c1)c1cc(NC(=O)Cc2cccc(F)c2Cl)ccn1 ... 99
COc1c(F)cc(N(C(C)=O)c2cc(NC(=O)Cc3cccc(F)c3Cl)ccn2)cc1F ... 92
CC(=O)N(c1ccc(F)c(F)c1)c1cc(NC(=O)Cc2ccc([N+](=O)[O-])cc2Cl)ccn1 ... 94
CC(=O)N(c1cc(F)cc(F)c1)c1cc(NC(=O)Cc2ccccc2Cl)cnn1 ... 93
CC(=O)N(c1ccc(F)cc1)c1cc(NC(=O)Cc2cccc(C(F)(F)F)c2Cl)ccn1 ... 99

Tested on human P2X4 (Homo sapiens, UniProt Q99571): CC(=O)N(c1cccc(C#N)c1)c1cc(NC(=O)Cc2c(F)cccc2Cl)ccn1 . Observed Human P2X4 HEK Cells (FLIPR Assay) avg Efficacy: 94

Tested on human P2X4 (Homo sapiens, UniProt Q99571): CC(=O)N(c1cc(F)cc(F)c1)c1cc(NC(=O)Cc2ccccc2C(F)(F)F)ccn1 . Observed Human P2X4 HEK Cells (FLIPR Assay) avg Efficacy: 100

Tested on human P2X4 (Homo sapiens, UniProt Q99571): CC(=O)N(c1ccc(C)c(Cl)c1)c1cc(NC(=O)Cc2cccc(F)c2Cl)ccn1 . Observed Human P2X4 HEK Cells (FLIPR Assay) avg Efficacy: 101

Tested on human P2X4 (Homo sapiens, UniProt Q99571): CC(=O)N(c1ccc(OC(F)F)cc1)c1cc(NC(=O)Cc2ccccc2Cl)ccn1 . Observed Human P2X4 HEK Cells (FLIPR Assay) avg Efficacy: 98

Tested on human P2X4 (Homo sapiens, UniProt Q99571): CC(=O)N(c1ccc(F)cc1)c1cc(NC(=O)Cc2ccc(Cl)cc2C(F)(F)F)ccn1 . Observed Human P2X4 HEK Cells (FLIPR Assay) avg Efficacy: 100
